Experiment: The compound was tested for cell adhesion by measuring the inhibitory concentration against Human umbilical vein endothelial cell (HUVEC) activation, using calcein-AM as radioligand at 33 uM
Type: functional
Label 1 (yes) for high-side inhibition at 33 µM (at or above 20%) and 0 (no) for low-side inhibition at 33 µM (below it).

Illustrative cases are given below, each with its answer.
CNC(=O)c1sc2ccc(OC)cc2c1SC(C)C
1 (yes)
COc1ccc2sc(C(=O)NC(C)C)c(SC(C)C)c2c1
1 (yes)
COc1ccc2sc(C(N)=O)c(SCCN)c2c1
0 (no)
COc1ccc2sc(C(N)=O)c(SCC(=O)O)c2c1
0 (no)

Task item: Item "CC(C)Sc1c(C(N)=O)sc2ccc(OCc3ccccc3)cc12" with inhibition at 33 µM of 20% or above?
Reply: 1 (yes)
